# Tested on: biotinyl-Trp-oxazolone
# PROTOCOL_DESCRIPTION: self-aminoacylation, catalytic enhancement (BWO) (fold over background); higher = more active; k-Seq, kA / k0A0; sequences stand for … in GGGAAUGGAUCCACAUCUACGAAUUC…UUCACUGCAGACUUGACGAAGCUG
This sample holds only a part of the variants without activity.
Known self-aminoacylation of a selection of sequences
READOUT_TYPE: self-aminoacylation

{"BIOPOLYMER_SEQUENCE": "AUUCACCUAGGUAAUCGGCUG [Fam2.2 aminoacylation ribozyme variant]", "RESULT": 1.2}
{"BIOPOLYMER_SEQUENCE": "AUCCACCUAGGUCAUCGGGCG [Fam2.2 aminoacylation ribozyme variant]", "RESULT": 3.38}
{"BIOPOLYMER_SEQUENCE": "GUACUUCAAACAAUCGGUGUG [Fam1A.1 aminoacylation ribozyme variant]", "RESULT": 10.2}
{"BIOPOLYMER_SEQUENCE": "CCGCACUUCAAGCAUUCGGUC [Fam1B.1 aminoacylation ribozyme variant]", "RESULT": 1.76}
{"BIOPOLYMER_SEQUENCE": "AAGUUUGAUAAUACUCGCAAG [Fam3.1 aminoacylation ribozyme variant]", "RESULT": 0.52}
{"BIOPOLYMER_SEQUENCE": "CCCGACUUCAAGCAAUCGGUC [Fam1B.1 aminoacylation ribozyme variant]", "RESULT": 47.6}
{"BIOPOLYMER_SEQUENCE": "ACACAGUUCAAGCAAUCGGUC [Fam1B.1 aminoacylation ribozyme variant]", "RESULT": 3.46}
{"BIOPOLYMER_SEQUENCE": "AUUACACUGGCCAUCGAGUGA [Fam2.1 aminoacylation ribozyme variant]", "RESULT": 5.64}

----------
# Test system: biotinyl-Ile-oxazolone
# PROTOCOL_DESCRIPTION: self-aminoacylation, catalytic enhancement (BIO) (fold over background); higher = more active; k-Seq, kA / k0A0; sequences stand for … in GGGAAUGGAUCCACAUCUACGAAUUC…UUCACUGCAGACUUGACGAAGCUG
This sample holds only a part of the variants without activity.
READOUT_TYPE: self-aminoacylation

{"BIOPOLYMER_SEQUENCE": "CAGUUUGCAAAUAGUCGCAAG [Fam3.1 aminoacylation ribozyme variant]", "TEST_TARGET": "biotinyl-Ile-oxazolone", "NUMERIC_VALUE": 1.72}
{"BIOPOLYMER_SEQUENCE": "AUUCACCUAGGACAUCGGGUA [Fam2.2 aminoacylation ribozyme variant]", "TEST_TARGET": "biotinyl-Ile-oxazolone", "NUMERIC_VALUE": 2.02}
{"BIOPOLYMER_SEQUENCE": "GUCACCCUGGUCAUCGAGUGA [Fam2.1 aminoacylation ribozyme variant]", "TEST_TARGET": "biotinyl-Ile-oxazolone", "NUMERIC_VALUE": 5.2}
{"BIOPOLYMER_SEQUENCE": "AAUCGCCUAGGUCAUCGGGUG [Fam2.2 aminoacylation ribozyme variant]", "TEST_TARGET": "biotinyl-Ile-oxazolone", "NUMERIC_VALUE": 6.97}
{"BIOPOLYMER_SEQUENCE": "AUUACCCGGGUCAUCGAAUGA [Fam2.1 aminoacylation ribozyme variant]", "TEST_TARGET": "biotinyl-Ile-oxazolone", "NUMERIC_VALUE": 1}
{"BIOPOLYMER_SEQUENCE": "CUACUUCAAACAAUCCGGCUG [Fam1A.1 aminoacylation ribozyme variant]", "TEST_TARGET": "biotinyl-Ile-oxazolone", "NUMERIC_VALUE": 1.5}
{"BIOPOLYMER_SEQUENCE": "AUUAACCGGGUCAUCGAGUGA [Fam2.1 aminoacylation ribozyme variant]", "TEST_TARGET": "biotinyl-Ile-oxazolone", "NUMERIC_VALUE": 3.38}
{"BIOPOLYMER_SEQUENCE": "AUUUUUGCUAAUAGUCGCAAG [Fam3.1 aminoacylation ribozyme variant]", "TEST_TARGET": "biotinyl-Ile-oxazolone", "NUMERIC_VALUE": 1.37}
{"BIOPOLYMER_SEQUENCE": "AUUCAUCUAGGUCAUCGGGUA [Fam2.2 aminoacylation ribozyme variant]", "TEST_TARGET": "biotinyl-Ile-oxazolone", "NUMERIC_VALUE": 3.09}
{"BIOPOLYMER_SEQUENCE": "ACUACCCUGGUCUUCGAGUGA [Fam2.1 aminoacylation ribozyme variant]", "TEST_TARGET": "biotinyl-Ile-oxazolone", "NUMERIC_VALUE": 2.45}
{"BIOPOLYMER_SEQUENCE": "AUUAGCAUGGUCAUCGAGUGA [Fam2.1 aminoacylation ribozyme variant]", "TEST_TARGET": "biotinyl-Ile-oxazolone", "NUMERIC_VALUE": 2.87}
{"BIOPOLYMER_SEQUENCE": "CUACAUCAAACAAUCGCUCUG [Fam1A.1 aminoacylation ribozyme variant]", "TEST_TARGET": "biotinyl-Ile-oxazolone", "NUMERIC_VALUE": 0.803}
{"BIOPOLYMER_SEQUENCE": "CUACCUCAAACACUCGGUCUG [Fam1A.1 aminoacylation ribozyme variant]", "TEST_TARGET": "biotinyl-Ile-oxazolone", "NUMERIC_VALUE": 1.22}
{"BIOPOLYMER_SEQUENCE": "GUUCACCCAGGUCAUCGGGUG [Fam2.2 aminoacylation ribozyme variant]", "TEST_TARGET": "biotinyl-Ile-oxazolone", "NUMERIC_VALUE": 3.12}
{"BIOPOLYMER_SEQUENCE": "AUUACACUGGCCAUCGAGUGA [Fam2.1 aminoacylation ribozyme variant]", "TEST_TARGET": "biotinyl-Ile-oxazolone", "NUMERIC_VALUE": 3.13}
{"BIOPOLYMER_SEQUENCE": "AUUACUAUGGUCAUCGAGUGA [Fam2.1 aminoacylation ribozyme variant]", "TEST_TARGET": "biotinyl-Ile-oxazolone", "NUMERIC_VALUE": 3.32}
{"BIOPOLYMER_SEQUENCE": "CCACACCUCCAGCAAUCGGUC [Fam1B.1 aminoacylation ribozyme variant]", "TEST_TARGET": "biotinyl-Ile-oxazolone", "NUMERIC_VALUE": 1.69}
{"BIOPOLYMER_SEQUENCE": "AUUCACCUAGGUCAUCGGGCU [Fam2.2 aminoacylation ribozyme variant]", "TEST_TARGET": "biotinyl-Ile-oxazolone", "NUMERIC_VALUE": 5.03}
{"BIOPOLYMER_SEQUENCE": "AUUCACCAAGGUCGUCGGGUG [Fam2.2 aminoacylation ribozyme variant]", "TEST_TARGET": "biotinyl-Ile-oxazolone", "NUMERIC_VALUE": 2.09}
{"BIOPOLYMER_SEQUENCE": "AUUAACCUGGGCAUCGAGUGA [Fam2.1 aminoacylation ribozyme variant]", "TEST_TARGET": "biotinyl-Ile-oxazolone", "NUMERIC_VALUE": 2.63}
{"BIOPOLYMER_SEQUENCE": "UAGCUUGCUAAUAGUCGCAAG [Fam3.1 aminoacylation ribozyme variant]", "TEST_TARGET": "biotinyl-Ile-oxazolone", "NUMERIC_VALUE": 2.34}
{"BIOPOLYMER_SEQUENCE": "AGUCACCAAGGUCAUCGGGUG [Fam2.2 aminoacylation ribozyme variant]", "TEST_TARGET": "biotinyl-Ile-oxazolone", "NUMERIC_VALUE": 4.38}
{"BIOPOLYMER_SEQUENCE": "AUGCACCUAGGUCAUCGGGAG [Fam2.2 aminoacylation ribozyme variant]", "TEST_TARGET": "biotinyl-Ile-oxazolone", "NUMERIC_VALUE": 1.56}
{"BIOPOLYMER_SEQUENCE": "AUCACCCUGGUCGUCGAGUGA [Fam2.1 aminoacylation ribozyme variant]", "TEST_TARGET": "biotinyl-Ile-oxazolone", "NUMERIC_VALUE": 1.24}
{"BIOPOLYMER_SEQUENCE": "AUUAUCCUGGUCAUCAAGUGA [Fam2.1 aminoacylation ribozyme variant]", "TEST_TARGET": "biotinyl-Ile-oxazolone", "NUMERIC_VALUE": 2.3}
{"BIOPOLYMER_SEQUENCE": "AAGUUUGCUAACAGUCGCAAG [Fam3.1 aminoacylation ribozyme variant]", "TEST_TARGET": "biotinyl-Ile-oxazolone", "NUMERIC_VALUE": 1.18}
{"BIOPOLYMER_SEQUENCE": "AUUACCCUGCUCAUCGAAUGA [Fam2.1 aminoacylation ribozyme variant]", "TEST_TARGET": "biotinyl-Ile-oxazolone", "NUMERIC_VALUE": 0.867}
{"BIOPOLYMER_SEQUENCE": "AUUCACCUAGGUCUUCGGGUC [Fam2.2 aminoacylation ribozyme variant]", "TEST_TARGET": "biotinyl-Ile-oxazolone", "NUMERIC_VALUE": 1.65}
{"BIOPOLYMER_SEQUENCE": "ACUCACCUAGGUCAUGGGGUG [Fam2.2 aminoacylation ribozyme variant]", "TEST_TARGET": "biotinyl-Ile-oxazolone", "NUMERIC_VALUE": 3.61}
{"BIOPOLYMER_SEQUENCE": "AUUACCCUGGUCAUAGAGUCA [Fam2.1 aminoacylation ribozyme variant]", "TEST_TARGET": "biotinyl-Ile-oxazolone", "NUMERIC_VALUE": 0.884}
{"BIOPOLYMER_SEQUENCE": "CCCCACUUCAAGCAAUCGGGC [Fam1B.1 aminoacylation ribozyme variant]", "TEST_TARGET": "biotinyl-Ile-oxazolone", "NUMERIC_VALUE": 2.37}
{"BIOPOLYMER_SEQUENCE": "AUUACCCUGAUCAUCGCGUGA [Fam2.1 aminoacylation ribozyme variant]", "TEST_TARGET": "biotinyl-Ile-oxazolone", "NUMERIC_VALUE": 5.83}
{"BIOPOLYMER_SEQUENCE": "AUUCACCUCUGUCAUCGGGUG [Fam2.2 aminoacylation ribozyme variant]", "TEST_TARGET": "biotinyl-Ile-oxazolone", "NUMERIC_VALUE": 3.8}
{"BIOPOLYMER_SEQUENCE": "GAGUUGGCUAAUAGUCGCAAG [Fam3.1 aminoacylation ribozyme variant]", "TEST_TARGET": "biotinyl-Ile-oxazolone", "NUMERIC_VALUE": 2.02}
{"BIOPOLYMER_SEQUENCE": "CCACACUUCAAGCAACCGGGC [Fam1B.1 aminoacylation ribozyme variant]", "TEST_TARGET": "biotinyl-Ile-oxazolone", "NUMERIC_VALUE": 2.77}
